- ASSAYED TARGET: Rap guanine nucleotide exchange factor 3 (Homo sapiens) (UniProt O95398)
- Sequence (O95398 whole entry, looked up): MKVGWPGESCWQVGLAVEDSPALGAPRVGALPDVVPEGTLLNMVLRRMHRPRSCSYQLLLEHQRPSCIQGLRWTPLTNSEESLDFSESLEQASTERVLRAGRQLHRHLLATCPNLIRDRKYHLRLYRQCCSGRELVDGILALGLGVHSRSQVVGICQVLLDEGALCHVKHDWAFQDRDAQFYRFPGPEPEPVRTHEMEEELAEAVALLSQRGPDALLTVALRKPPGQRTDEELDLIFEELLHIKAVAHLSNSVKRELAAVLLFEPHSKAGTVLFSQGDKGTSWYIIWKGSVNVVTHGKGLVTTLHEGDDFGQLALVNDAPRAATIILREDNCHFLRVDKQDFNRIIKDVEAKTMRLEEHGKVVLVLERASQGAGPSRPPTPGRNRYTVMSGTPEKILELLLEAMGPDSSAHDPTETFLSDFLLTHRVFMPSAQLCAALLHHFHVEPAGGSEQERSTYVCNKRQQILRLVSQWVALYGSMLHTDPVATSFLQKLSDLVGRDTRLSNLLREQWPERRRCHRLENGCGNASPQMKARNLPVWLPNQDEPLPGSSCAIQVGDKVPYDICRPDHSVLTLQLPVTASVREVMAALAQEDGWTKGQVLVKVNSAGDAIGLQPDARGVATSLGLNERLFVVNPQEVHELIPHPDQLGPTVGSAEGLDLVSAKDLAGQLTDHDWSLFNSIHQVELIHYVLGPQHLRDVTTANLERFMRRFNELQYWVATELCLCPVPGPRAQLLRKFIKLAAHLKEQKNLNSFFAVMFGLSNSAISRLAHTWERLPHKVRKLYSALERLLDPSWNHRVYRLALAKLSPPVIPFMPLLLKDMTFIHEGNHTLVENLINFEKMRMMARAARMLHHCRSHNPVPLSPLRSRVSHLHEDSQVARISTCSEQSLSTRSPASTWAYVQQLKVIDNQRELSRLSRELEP
- ASSAY EXPLANATION: Confirmatory qHTS for agonist of cAMP-regulated guanine nucleotide exchange factor 3 (EPAC1) (AID 1645881); also: nearly all actives have a fitted effect of over 75% in size;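 as to activation: EPAC1 catalysed release of BODIPY-GDP from Rap1B seen as fluorescence loss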
- STATED CONDITIONS: EPAC1 Rap1B BODIPY-GDP exchange fluorescence; series mostly up to 154 µM
Records with an inconclusive call do not appear. The source made the active and inactive calls. Calls follow the shape of the dose curve; as a rule, active = well fitted activation curve with a large enough effect; inconclusive = small, poorly fitted or top-dose-only effect; inactive = no such curve, though single readings can be large or run the other way.
Lab note: assign the record to one of T for active, F for inactive

Look up the recorded call for O=C(CC1C[C@H](C(=O)N2CCCCC2)[C@@]2(CCc3ccccc3)c3[nH]c4ccccc4c3CCN2C1=O)NCCCn1ccnc1 (some centres undefined) in this test.
F

Could you check what this test reported for COc1ccc(C(CNC(=O)c2cccc(S(=O)(=O)Nc3ccc(C)cc3)c2)N2CCOCC2)cc1 (centres undefined) ?
F

Hi team, can someone confirm the assay call for CN(C)c1ccc(/C=C2\C(=N)N3N=C(CC(=O)N4CCCCC4)SC3=NC2=O)cc1 ?
F

Identify the outcome logged in this assay for the molecule shown: C=C[C@]1(C)C[C@@H](OC(=O)CSCCN(CC)CC)[C@]2(C)C(C)CC[C@]3(CCC(=O)[C@H]32)[C@@H](C)[C@@H]1O (some centres undefined)
F

Short answer needed: outcome of this test for Cc1cc(C)cc(N(CC(=O)Nc2ccc(C(F)(F)F)cc2)S(=O)(=O)c2c(C)[nH]c(=O)[nH]c2=O)c1 ?
F

# fetch the recorded call for COc1ccc(S(=O)(=O)/N=C2\C=C(NS(=O)(=O)c3ccccc3)C(=O)c3ccccc32)cc1 here
T

// return assay outcome for COC(=O)c1nc2nc(C)cc(=O)n2[nH]1
F

Which outcome did this test record for the molecule O=C(O)c1ccccc1-c1ccc(/C=C/c2cc(C(F)(F)F)[nH]c(=O)n2)o1 ?
T

Field: outcome | Entry: Nc1ccc(Oc2ncccn2)cc1
F
